targetEntity: CHO-CHOP luciferase reporter, UPR activation, luminescence
assayNotes: CHOP reporter induction, apoptotic UPR branch – CHO-CHOP cells, luciferase luminescence, confirmation (AID 489024);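 also: compounds added alone to reporter cells with no tunicamycin stress co-treatment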
Calls of active or inactive are those of the source.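 The calls were made as follows: active = compounds whose mean EC50, the dose giving half the maximal reporter activation, is at or below a set limit; inactive = the rest.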
Outcomes: active, inactive

[
  {
    "structureSmilesString": "COc1ccccc1C(=O)NC(=S)NNC(=O)c1sc2ccccc2c1Cl",
    "class": "inactive"
  },
  {
    "structureSmilesString": "Oc1ccc(CN2CCN(c3ccccc3)CC2)c2cccnc12",
    "class": "inactive"
  },
  {
    "structureSmilesString": "O=C(/C=C/Sc1ccc(C(F)(F)F)cn1)c1ccccc1",
    "class": "active"
  },
  {
    "structureSmilesString": "Cc1ccc(-c2nc(NC(=O)c3nn(C)cc3[N+](=O)[O-])sc2C)cc1",
    "class": "active"
  },
  {
    "structureSmilesString": "O=[N+]([O-])c1cc(O)c2ncccc2c1",
    "class": "active"
  },
  {
    "structureSmilesString": "CCc1cccc(CC)c1NC(=O)/C(C#N)=C/c1ccccc1C(F)(F)F",
    "class": "inactive"
  }
]

* * *

targetEntity: CHO-CHOP luciferase reporter, UPR activation, luminescence
assayNotes: CHOP reporter induction, apoptotic UPR branch – CHO-CHOP cells, luciferase luminescence, confirmation (AID 489024);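 also: compounds added alone to reporter cells with no tunicamycin stress co-treatment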
Calls of active or inactive are those of the source.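 The calls were made as follows: active = compounds whose mean EC50, the dose giving half the maximal reporter activation, is at or below a set limit; inactive = the rest.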
Possible outcomes: active, inactive

[
  {
    "compound": "O=C(CCl)Nc1cccc(S(=O)(=O)NC2=NCCCCC2)c1",
    "targetEntity": "CHO-CHOP luciferase reporter, UPR activation, luminescence",
    "class": "active"
  },
  {
    "compound": "COc1ccc(NC(=O)C(=O)N/N=C\\c2ccc(CNC(=O)C(=O)Nc3ccc(C)c(C)c3)o2)c(OC)c1",
    "targetEntity": "CHO-CHOP luciferase reporter, UPR activation, luminescence",
    "class": "active"
  },
  {
    "compound": "O=C(CCl)c1ccc(Cc2ncc(C(F)(F)F)cc2Cl)s1",
    "targetEntity": "CHO-CHOP luciferase reporter, UPR activation, luminescence",
    "class": "active"
  },
  {
    "compound": "COc1ccc(C(=O)/C=C2/C(=O)Nc3ccccc32)c(OC)c1",
    "targetEntity": "CHO-CHOP luciferase reporter, UPR activation, luminescence",
    "class": "active"
  },
  {
    "compound": "CS(=O)(=O)c1nc(-c2ccc(Br)cc2)cc(-c2ccccc2)c1C#N",
    "targetEntity": "CHO-CHOP luciferase reporter, UPR activation, luminescence",
    "class": "active"
  },
  {
    "compound": "Cc1ccc(C(=O)Cn2c(C(=O)/C=C/c3ccccc3)nc3ccccc32)cc1",
    "targetEntity": "CHO-CHOP luciferase reporter, UPR activation, luminescence",
    "class": "active"
  },
  {
    "compound": "COc1cc(CN2CCN(c3cc(C)ccc3C)CC2)ccc1O",
    "targetEntity": "CHO-CHOP luciferase reporter, UPR activation, luminescence",
    "class": "active"
  },
  {
    "compound": "O=c1c2c3c(sc2ncn1/N=C/c1ccc([N+](=O)[O-])o1)CCCC3",
    "targetEntity": "CHO-CHOP luciferase reporter, UPR activation, luminescence",
    "class": "active"
  },
  {
    "compound": "O=Cc1ccc(O)c2ncccc12",
    "targetEntity": "CHO-CHOP luciferase reporter, UPR activation, luminescence",
    "class": "active"
  },
  {
    "compound": "C=CCNC(=S)N/N=C(\\C)c1ccccn1",
    "targetEntity": "CHO-CHOP luciferase reporter, UPR activation, luminescence",
    "class": "active"
  },
  {
    "compound": "COc1ccccc1-c1nnc(Nc2nc3c(OC)cccc3s2)o1",
    "targetEntity": "CHO-CHOP luciferase reporter, UPR activation, luminescence",
    "class": "active"
  },
  {
    "compound": "C/C(=C\\c1ccc(N(C)C)cc1)[N+](=O)[O-]",
    "targetEntity": "CHO-CHOP luciferase reporter, UPR activation, luminescence",
    "class": "active"
  },
  {
    "compound": "Cc1nn(Cc2c(Cl)cccc2Cl)c(C)c1NC(=O)c1sc2ccccc2c1Cl",
    "targetEntity": "CHO-CHOP luciferase reporter, UPR activation, luminescence",
    "class": "inactive"
  },
  {
    "compound": "Cc1ccc(-c2nc(SCC(=O)Nc3cc(C)on3)c3c(=O)n(C)c(=O)n(C)c3n2)cc1",
    "targetEntity": "CHO-CHOP luciferase reporter, UPR activation, luminescence",
    "class": "inactive"
  },
  {
    "compound": "C/C(=N\\NC(=O)c1cccc2ccccc12)c1ccccn1",
    "targetEntity": "CHO-CHOP luciferase reporter, UPR activation, luminescence",
    "class": "active"
  },
  {
    "compound": "CN(C(=O)CSc1cc(C(=O)c2nccn2C)c2ccccc2n1)c1ccccc1",
    "targetEntity": "CHO-CHOP luciferase reporter, UPR activation, luminescence",
    "class": "active"
  },
  {
    "compound": "O=C(Nc1nc2c(F)cc(F)cc2s1)c1ccccn1",
    "targetEntity": "CHO-CHOP luciferase reporter, UPR activation, luminescence",
    "class": "active"
  },
  {
    "compound": "COc1cccc2sc(Nc3nc(C)c(C(C)=O)s3)nc12",
    "targetEntity": "CHO-CHOP luciferase reporter, UPR activation, luminescence",
    "class": "active"
  },
  {
    "compound": "N#Cc1ccc(N/N=C/c2cn(-c3ccccc3)nc2-c2ccccc2)c([N+](=O)[O-])c1",
    "targetEntity": "CHO-CHOP luciferase reporter, UPR activation, luminescence",
    "class": "inactive"
  },
  {
    "compound": "Cc1ccccc1/C=C/C(=O)c1ccc([N+](=O)[O-])o1",
    "targetEntity": "CHO-CHOP luciferase reporter, UPR activation, luminescence",
    "class": "active"
  },
  {
    "compound": "N#CC1=C(N)OC2=C(CC/C2=C\\c2ccccc2)C1c1ccccc1 (stereo not given)",
    "targetEntity": "CHO-CHOP luciferase reporter, UPR activation, luminescence",
    "class": "active"
  },
  {
    "compound": "C/C(=N\\NC(=O)c1cc(Br)ccc1O)c1ccccn1",
    "targetEntity": "CHO-CHOP luciferase reporter, UPR activation, luminescence",
    "class": "active"
  },
  {
    "compound": "O=CC1=C(c2ccccc2)Oc2ccccc2O1",
    "targetEntity": "CHO-CHOP luciferase reporter, UPR activation, luminescence",
    "class": "active"
  },
  {
    "compound": "O=C1/C(=C/c2ccccc2[N+](=O)[O-])COc2ccccc21",
    "targetEntity": "CHO-CHOP luciferase reporter, UPR activation, luminescence",
    "class": "active"
  },
  {
    "compound": "COc1ccc(CC2=CC(=O)c3ccccc3C2=O)cc1",
    "targetEntity": "CHO-CHOP luciferase reporter, UPR activation, luminescence",
    "class": "active"
  },
  {
    "compound": "Cc1ccc(-c2cc(-c3ccc(C)cc3)[n+](-c3ccccc3)c(-c3ccc(C)cc3)c2)cc1",
    "targetEntity": "CHO-CHOP luciferase reporter, UPR activation, luminescence",
    "class": "active"
  },
  {
    "compound": "O=C(CSC(=S)N1CCCC1)c1cc(Br)cc(Br)c1O",
    "targetEntity": "CHO-CHOP luciferase reporter, UPR activation, luminescence",
    "class": "inactive"
  },
  {
    "compound": "Oc1ccc(/C=N/Nc2cc(N3CCOCC3)nc(N3CCOCC3)n2)cc1O",
    "targetEntity": "CHO-CHOP luciferase reporter, UPR activation, luminescence",
    "class": "inactive"
  },
  {
    "compound": "COc1ccc(CNC[C@@H](CCCCN(C)Cc2ccc(OC)cc2)N2C[C@H](c3ccccc3)N(CCc3ccc(Cl)c(Cl)c3)C(=O)C2=O)cc1",
    "targetEntity": "CHO-CHOP luciferase reporter, UPR activation, luminescence",
    "class": "active"
  },
  {
    "compound": "COc1cccc2sc(N3CCN(c4nc5ccccc5s4)CC3)nc12",
    "targetEntity": "CHO-CHOP luciferase reporter, UPR activation, luminescence",
    "class": "active"
  }
]
